# assaySystem: T1, cyno-M-IL1RAP construct, positions S21-T367 (cynomolgus monkey, UniProt P59822 21-367 (rhesus entry))
# T1 construct: Biotinylated when captured on the Biacore chip; also called cy-M-IL1RAP
# T1 sequence: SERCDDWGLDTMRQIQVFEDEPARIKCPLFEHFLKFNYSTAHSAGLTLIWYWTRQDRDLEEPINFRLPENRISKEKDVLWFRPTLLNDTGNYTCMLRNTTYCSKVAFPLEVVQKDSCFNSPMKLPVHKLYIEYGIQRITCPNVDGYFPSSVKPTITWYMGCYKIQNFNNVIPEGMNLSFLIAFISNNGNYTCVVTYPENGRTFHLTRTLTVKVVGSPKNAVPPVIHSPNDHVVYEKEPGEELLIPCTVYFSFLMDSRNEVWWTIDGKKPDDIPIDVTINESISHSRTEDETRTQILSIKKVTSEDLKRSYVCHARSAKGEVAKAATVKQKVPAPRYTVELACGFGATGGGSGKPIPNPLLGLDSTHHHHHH
# assayInfo: ELISA, purified mAb
pEC50: −log10 of the molar value.

binder	pEC50
9D5 (purified mAb from hybridoma 9D5) (antibody, V domains shown, Mouse hybridoma mAb) VH: QVQLQQSGAELARPGASVKFSCKASGYTFTSYWMQWVKQRPGQGLEWIGTIYPGDGNTRYTQKFKGKATLTADKSSSTAYMQLSGLASEDSAVYYCARGYFGNLVFDVWGAGTTVTVSS VL: DIKMTQSPSSMYASLGERVTITCKASQDINTYLSWFLQKPGKSPKTLIYRADRLVDGVPSRFSGGGSGQDYSLTISSLEYEDLGIYYCLQYDEFPYTFGSGTKLEIK	10.37
